# Nutsedge, Yellow plant response rating values compiled below
System: yellow nutsedge
protocol_description: Test C preemergence
Assay type: in vivo, Cyperus esculentus
condition_label: 125 g ai/ha, preemergence; scale 0 (no effect) to 100 (complete control)
From the text: […]

Recall the recorded Nutsedge, Yellow plant response rating for N#Cc1cccc(Oc2ncc(F)cn2)c1-n1cc(Cl)cn1 with yellow nutsedge and state it.
5

For the record CCCOc1cnn(-c2c(C#N)cccc2Oc2ncc(Cl)cn2)c1 , what value of Nutsedge, Yellow plant response rating is listed for yellow nutsedge?
40

Value wanted: Nutsedge, Yellow plant response rating (yellow nutsedge) of entry Fc1cnc(Oc2cccc(C(F)F)c2-n2cc(Br)cn2)nc1
40

Identify the measured Nutsedge, Yellow plant response rating of FC(F)(F)c1cnn(-c2c(Cl)cccc2Oc2ncc(Cl)cn2)c1 for yellow nutsedge.
60

Further cases:
Observed Nutsedge, Yellow plant response rating on yellow nutsedge for N#Cc1cccc(Oc2ncc(Br)cn2)c1-n1cc(I)cn1 , please.
5

Short answer please: Nutsedge, Yellow plant response rating, yellow nutsedge, entry CCOc1cnn(-c2ccccc2Oc2ncc(Cl)cn2)c1
5

---

Test system: large (Lg) crabgrass
protocol_description: Test E preemergence
Assay type: in vivo, Digitaria sanguinalis
condition_label: 31 g ai/ha, scale 0 to 100 (0 no effect, 100 complete control)
Measured Crabgrass, Large plant response rating, listed per entry.
Give the figure only, with no unit attached.

# input molecule: FC(F)(F)c1cnn(-c2c(Cl)cccc2Oc2ncc(Cl)cn2)c1 ; wanted: its Crabgrass, Large plant response rating
65

Requested read-out: Crabgrass, Large plant response rating. Entry: FCc1cccc(Oc2ncc(Cl)cn2)c1-n1cc(Cl)cn1
0

Fill in: Crabgrass, Large plant response rating of N#Cc1cccc(Oc2ncc(Br)cn2)c1-n1cc(I)cn1 is ___
35

Then there is this molecule:
Need Crabgrass, Large plant response rating, item FC(F)c1cccc(Oc2ncc(Cl)cn2)c1-n1cc(Br)cn1
85

---

Tested on: giant foxtail
protocol_description: Test A preemergence
Format: in vivo, Setaria faberii
condition_label: 1000 g ai/ha, 0 to 100 scale, 0 no effect, 100 complete control, approx. 10 days
reported_endpoint: Foxtail, Giant plant response rating
A bare number is all that is needed in reply.

I would be grateful if you could share the reported Foxtail, Giant plant response rating for C[Si](C)(C)c1cn(-c2c(Br)cccc2Oc2ncc(Cl)cn2)nn1 .
80

Would you kindly share the measured Foxtail, Giant plant response rating for Fc1ccc(Oc2ncc(Cl)cn2)c(-n2cc(Br)cn2)c1 ?
100

// Foxtail, Giant plant response rating lookup, key: N#CCOc1cccc(Oc2ncc(Cl)cn2)c1-n1cc(Br)cn1
60

Would you mind telling me what Foxtail, Giant plant response rating value was observed for CCN(C)C(=O)c1cccc(Oc2ncc(Cl)cn2)c1-n1cc(C(F)(F)F)cn1 ?
50

Looking for the measured Foxtail, Giant plant response rating of Fc1cc(F)cc(-c2cn(-c3c(Br)cccc3Oc3ncc(Cl)cn3)nn2)c1 , can you help?
50

In the following, a different compound is considered.
Please look up its Foxtail, Giant plant response rating: FCc1cn(-c2c(F)cccc2Oc2ncc(Cl)cn2)nn1
100

---

Tested on: lambsquarters
protocol_description: Test C preemergence
Format: in vivo, Chenopodium album
condition_label: Preemergence, 31 g ai/ha; scale 0 to 100, 0 no effect, 100 complete control
As shown below, each of these molecules has a reported Plant response rating, Lambsquarters value.

Item under review: N#Cc1cccc(Oc2ncc(F)cn2)c1-n1cc(I)cn1 . Reported Plant response rating, Lambsquarters?
100

I am curious: what Plant response rating, Lambsquarters value has been reported for N#Cc1cccc(Oc2ncc(Br)cn2)c1-n1cc(I)cn1 ?
100

What value of Plant response rating, Lambsquarters has been recorded for this entry: CCOc1cnn(-c2c(C#N)cccc2Oc2ncc(F)cn2)c1
80

New cases:
What value of Plant response rating, Lambsquarters has been reported for the following molecule? FCc1cccc(Oc2ncc(Cl)cn2)c1-n1cc(Br)cn1
100

Where these numbers come from: patent US9695155B2
